target.entity: T1, Monomeric 8-histidine tagged human EGFRvIII extracellular domain (human, UniProt P00533 298-645)
T1 construct: Analyte in all SPR assays; not shown: 8-histidine tag
method: SPR, scFv-Fc captured by anti-human Fc, 37 C
measured.quantity: kon (M⁻¹ s⁻¹)
Quick reminder: number only, in M⁻¹ s⁻¹, skip the unit.

A selection of reference data follows.
14C11.LH scFv-Fc protein (Fc fusion, LH: light-chain variable domain at the N-terminus; not shown: human IgG1 Fc moiety) EIVMTQSPATLSVSPGERATLSCRASQSVSNNLAWYQQKPGQAPRLLIYGASTRATGVPARFSGSDSGTEFSLTISSLQSEDFAVYFCQQYKDWPFTFGPGTKVEIKGGGGSGGGGSGGGGSGGGGSQVTLKESGPVLVKPTETLTLTCTVSGFSLNNARMGVSWIRQPPGKALEWFAHIFSTDEKSFRTSLRSRLTLSKDTSKSQVVLTMTNMDPVDTATYYCARDSSNYEGYFDYWGQGILVTVSS	48000
30D8.HL scFv-Fc protein (Fc fusion, HL: heavy-chain variable domain at the N-terminus; not shown: human IgG1 Fc moiety) EVQLVESGGGLVKPGGSLRLSCEASGFTFSDAWMSWVRQAPGKGLEWVGRIKSKTDGGTTDYVVPLNGRFIISRDDSRNTLYLQLNNLKTEDTAVYYCTTVPGSYGYWGQGTLVTVSSGGGGSGGGGSGGGGSGGGGSDIVMTQSPLSLPVTPGEPASISCRSSQSLLHNKRNNYLDWFLQKPGQSPQLLIYLASNRASGVPDRFSGGGSGTDFTLKISRVEAEDVGVYYCMQAQQTPITFGQGTRLEIK	230000
26B9.HL scFv-Fc protein (Fc fusion, HL: heavy-chain variable domain at the N-terminus; not shown: human IgG1 Fc moiety) EVQLVESWGVLVKPGGSLRLSCAASGFIFNNAWMSWVRQAPGKGLEWIGRIKSKSDGGTTDYAAPVKDRFTISRDDSKDTLYLQMNGLKTEDTAVYFCTTAPGGPFDYWGQGTLVTVSSGGGGSGGGGSGGGGSGGGGSDIVLTQSPLSLPVTPGEPASISCRSSQSLLHRDGFNYLDWFLQKPGQSPQLLIYLASSRASGVPDRFSGSDSGTDFTLKISRVEAEDVGVYYCMQALQTPITFGQGTRLEIK	57000

Would you kindly look at the next entry?
Please fill in: kon reported for 20E12.HL scFv-Fc protein (Fc fusion, HL: heavy-chain variable domain at the N-terminus; not shown: human IgG1 Fc moiety) EVNLVESGGGLVKPGGSLRLSCEASGFTFSYAWMSWVRQAPGKGLEWVGRIKSIADGGATDYAAPVRNRFTISRDDSRNTLYLEMHSLKTEDTAVYYCTTIPGNDAFDMWGQGTMVTVSSGGGGSGGGGSGGGGSGGGGSDIVLTQSPLSLSVTPGEPASISCRSSQSLLYSNGKNYLDWFLHKPGQSPQLLIYLGSNRASGVPDRFSGSGSGIDFILKISRVEAEDVGVYYCMQAQQTPITFGQGTRLEIK = 21000

Reference source: patent US20190144550A1
